System: LNCaP cells
TEST: MTT assay (cytotoxicity), LNCaP cells
Type: cell-based
REPORTED CONDITIONS: 72 h, Table 2.1
# if measured IC50 < 3 µM: YES  # else: NO

{"COMPOUND": "N#Cc1ccc(NC(=O)N/C=C/c2cccc(C(F)(F)F)c2)cn1 [Compound 510]", "CLASS": "NO"}
{"COMPOUND": "O=C(N/C=C/c1cc(C(F)(F)F)cc(C(F)(F)F)c1)Nc1ncccc1Br [Compound 527]", "CLASS": "NO"}
{"COMPOUND": "O=C(N/C=C/c1cc(C(F)(F)F)cc(C(F)(F)F)c1)Nc1cncc(F)c1 [Compound 535]", "CLASS": "YES"}
{"COMPOUND": "O=C(N/C=C/c1cc(C(F)(F)F)cc(C(F)(F)F)c1)Nc1cnccn1 [Compound 528]", "CLASS": "YES"}
{"COMPOUND": "O=C(N/C=C/c1cc(C(F)(F)F)cc(C(F)(F)F)c1)Nc1cccnc1 [Compound 503]", "CLASS": "NO"}

====

TEST: MTT assay (cytotoxicity), LNCaP cells
Type: cell-based
REPORTED CONDITIONS: human, LNCaP cells, 72 h, Table 2.4
Documented IC50 at 72 h across a set of compounds
READOUT NAME: IC50 at 72 h (µM)

{"COMPOUND": "COc1cccc(NC(=O)N/C=C/c2cccs2)c1 [Compound 425]", "READOUT UNIT": "µM", "RELATION QUALIFIER": ">", "MEASURED NUMBER": 20}
{"COMPOUND": "O=C(N/C=C/c1c[nH]cn1)Nc1ccc([N+](=O)[O-])c(C(F)(F)F)c1 [Compound 454]", "READOUT UNIT": "µM", "RELATION QUALIFIER": ">", "MEASURED NUMBER": 10}
{"COMPOUND": "O=C(N/C=C/c1cccs1)Nc1cccc(C(F)(F)F)c1 [Compound 420]", "READOUT UNIT": "µM", "RELATION QUALIFIER": "=", "MEASURED NUMBER": 6.4}
{"COMPOUND": "O=C(NCCc1cccc(C(F)(F)F)c1)Nc1ccc([N+](=O)[O-])c(C(F)(F)F)c1 [Compound 448]", "READOUT UNIT": "µM", "RELATION QUALIFIER": "=", "MEASURED NUMBER": 1.8}
{"COMPOUND": "N#Cc1ccc(NC(=O)N/C=C/c2cccs2)cc1C(F)(F)F [Compound 428]", "READOUT UNIT": "µM", "RELATION QUALIFIER": "=", "MEASURED NUMBER": 2.1}
{"COMPOUND": "O=C(N/C=C/c1ccc([N+](=O)[O-])c(C(F)(F)F)c1)NCc1cccc(C(F)(F)F)c1 [Compound 461]", "READOUT UNIT": "µM", "RELATION QUALIFIER": "=", "MEASURED NUMBER": 2.4}
{"COMPOUND": "N#Cc1ccc(NC(=O)NCC(=O)c2ccc(F)cc2)cc1C(F)(F)F [Compound 982]", "READOUT UNIT": "µM", "RELATION QUALIFIER": "=", "MEASURED NUMBER": 4.6}
{"COMPOUND": "O=C(N/C=C/c1ccco1)Nc1ccc([N+](=O)[O-])c(C(F)(F)F)c1 [Compound 434]", "READOUT UNIT": "µM", "RELATION QUALIFIER": "=", "MEASURED NUMBER": 2}
